System: NCI-H226 lung
Test: NCI-60 one-dose screen, 48 h (100 = growth as untreated, 0 = no growth, -100 = all killed)
Conditions: 10 µM unless noted
Compounds without any hit were thinned out: in the full panel of roughly 83,000, 20% have a hit.
# binarize growth: threshold 90% inclusive, high side yes (1), low side no (0)

| molecule | subject of test | assigned label |
| --- | --- | --- |
| O=C(NCCN1CCC(O)CC1)c1cc2c(o1)C(=O)c1ccccc1C2=O | NCI-H226 lung | no (0) |
| O=S(=O)(Cc1ccccc1)c1nc2ccccc2s1 | NCI-H226 lung | no (0) |
| CCC(O)(C(c1ccccc1)c1ccccn1)C(c1ccccc1)c1ccccn1 (stereo not given) | NCI-H226 lung | yes (1) |

query: Decide: growth of Cc1[nH]c(-c2nc3ccccc3[nH]2)c(C)c1C(=O)NNc1ccc(Cl)cc1 >= 90%?
result: no (0)

query: Decide: is the reported value of growth for Cc1ccc(S(=O)(=O)N(CC[C@@H]2C[C@H]2c2cc3ccccc3o2)C(=O)NC2CCCCC2)cc1 equal to or greater than 90%?
result: no (0)
